# target or system: bovine serum albumin (BSA) (Bos taurus)
# Sequence (P02769 25-607): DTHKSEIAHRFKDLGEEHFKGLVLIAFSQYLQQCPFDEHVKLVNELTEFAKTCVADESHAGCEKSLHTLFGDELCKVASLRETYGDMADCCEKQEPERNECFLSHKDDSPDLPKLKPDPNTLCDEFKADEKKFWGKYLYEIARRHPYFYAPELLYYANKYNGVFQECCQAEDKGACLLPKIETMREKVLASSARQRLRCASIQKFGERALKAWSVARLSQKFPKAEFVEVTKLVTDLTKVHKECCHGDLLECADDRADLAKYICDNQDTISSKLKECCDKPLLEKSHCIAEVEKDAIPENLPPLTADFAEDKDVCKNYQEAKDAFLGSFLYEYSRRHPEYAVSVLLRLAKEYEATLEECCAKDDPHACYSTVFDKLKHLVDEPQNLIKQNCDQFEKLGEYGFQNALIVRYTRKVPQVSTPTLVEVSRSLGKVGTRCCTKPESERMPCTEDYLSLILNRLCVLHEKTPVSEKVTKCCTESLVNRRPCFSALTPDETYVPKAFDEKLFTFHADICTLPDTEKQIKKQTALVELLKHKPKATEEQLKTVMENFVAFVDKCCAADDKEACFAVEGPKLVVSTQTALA
# protocol notes: fluorescence turn-on with BSA in PBS buffer
# Type: binding
# assay context: BSA
endpoint: detection limit (10% increase in fluorescence emission) (µg/mL)
Give just the numeric value; µg/mL need not be written.

Please review the entries below; each comes with its answer.
In [3]: df
Out[3]:
                           molecular_string  reading
0       CN(C)c1ccc(-c2oc3ccccc3c(=O)c2O)cc1      2.6
1  CCOCc1ccc2oc(-c3ccc(N(C)C)cc3)c(O)c(=O)c2c1     0.14
2     CC(=O)Nc1ccc(-c2oc3ccccc3c(=O)c2O)cc1       14
3           Nc1ccc(-c2oc3ccccc3c(=O)c2O)cc1      3.4

Query: detection limit (10% increase in fluorescence emission); subject: `Cc1ccc2oc(-c3ccc(N(C)C)cc3)c(O)c(=O)c2c1`
0.59

Query: detection limit (10% increase in fluorescence emission); subject: `COc1c(-c2ccc(N(C)C)cc2)oc2ccc(C)cc2c1=O`
0.09

Data provenance: patent US9636021B2
